Test system: Bloodstream form trypomastigotes of T. b. brucei strain 427 (WT)
Experiment: Resazurin-based susceptibility assay, wild-type T. b. brucei
Type: cell-based
Details: Trypanosoma brucei, BSF trypomastigotes strain 427, n = 3
Can you tell me EC50 for the items I'm about to list?
// return numeric value only (unit: µM, not printed)

**Query** Name the recorded EC50 for Cc1cc(O)cc(O)c1C(=O)NCCCCCCCCCCCCOc1ccc(N=C2N(C(=O)OC(C)(C)C)CCN2C(=O)OC(C)(C)C)cc1 [14c] .
**Result** 10.4

**Query** Name the recorded EC50 for Cc1cc(O)c(C(=O)CCCCCCCCCCCCCCCOc2ccc(C#N)cc2)c(O)c1 [compound 20] .
**Result** 5.8

**Query** Name the recorded EC50 for Cc1cc(O)cc(O)c1C(=O)NCCCCCCCCCCCCOc1ccc(N)cc1 [12c] .
**Result** 20.3

**Query** Name the recorded EC50 for Cc1cc(O)cc(O)c1C(=O)NCCCCCCCCCCCCOc1ccc([N+](=O)[O-])cc1 [11c] .
**Result** 9.5
